System: Muscle tissue
Protocol: Biodistribution in Sprague-Dawley rat muscle at 1.48 to 2.22 MBq, iv measured at 30 mins by gamma counting analysis
Assay type: ADME, organism-based
Condition Set: in vivo, 0.5 h
Reported Metric: Drug uptake

> print(dat)
                                smiles.code    test.system   assay.value
1  Cn1cc(-c2ccncc2)c(-c2ccc(OCc3cc(C[18F])c4ccccc4n3)cc2)n1  Muscle tissue  0.174 % ID/g
2  Cn1cc(-c2ccncc2)c(-c2ccc(OCc3cc([18F])c4ccccc4n3)cc2)n1  Muscle tissue  0.236 % ID/g
3  Cn1cc(-c2ccncc2)c(-c2ccc(OCc3nc4ccccc4cc3OCC[18F])cc2)n1  Muscle tissue  0.156 % ID/g
4  Cn1cc(-c2ccncc2)c(-c2ccc(OCc3cc(OCC[18F])c4ccccc4n3)cc2)n1  Muscle tissue  0.134 % ID/g
5  Cn1cc(-c2ccncc2)c(-c2ccc(OCc3cc(CCC[18F])c4ccccc4n3)cc2)n1  Muscle tissue  0.178 % ID/g
6  Cn1cc(-c2ccncc2)c(-c2ccc(OCc3cc(OCCOCCOCC[18F])c4ccccc4n3)cc2)n1  Muscle tissue  0.488 % ID/g
7  Cn1cc(-c2ccncc2)c(-c2ccc(OCc3cc(COCC[18F])c4ccccc4n3)cc2)n1  Muscle tissue  0.265 % ID/g

* * *

Test System: 3',5'-cyclic-AMP phosphodiesterase 4A (Homo sapiens)
Sequence (P27815 whole entry): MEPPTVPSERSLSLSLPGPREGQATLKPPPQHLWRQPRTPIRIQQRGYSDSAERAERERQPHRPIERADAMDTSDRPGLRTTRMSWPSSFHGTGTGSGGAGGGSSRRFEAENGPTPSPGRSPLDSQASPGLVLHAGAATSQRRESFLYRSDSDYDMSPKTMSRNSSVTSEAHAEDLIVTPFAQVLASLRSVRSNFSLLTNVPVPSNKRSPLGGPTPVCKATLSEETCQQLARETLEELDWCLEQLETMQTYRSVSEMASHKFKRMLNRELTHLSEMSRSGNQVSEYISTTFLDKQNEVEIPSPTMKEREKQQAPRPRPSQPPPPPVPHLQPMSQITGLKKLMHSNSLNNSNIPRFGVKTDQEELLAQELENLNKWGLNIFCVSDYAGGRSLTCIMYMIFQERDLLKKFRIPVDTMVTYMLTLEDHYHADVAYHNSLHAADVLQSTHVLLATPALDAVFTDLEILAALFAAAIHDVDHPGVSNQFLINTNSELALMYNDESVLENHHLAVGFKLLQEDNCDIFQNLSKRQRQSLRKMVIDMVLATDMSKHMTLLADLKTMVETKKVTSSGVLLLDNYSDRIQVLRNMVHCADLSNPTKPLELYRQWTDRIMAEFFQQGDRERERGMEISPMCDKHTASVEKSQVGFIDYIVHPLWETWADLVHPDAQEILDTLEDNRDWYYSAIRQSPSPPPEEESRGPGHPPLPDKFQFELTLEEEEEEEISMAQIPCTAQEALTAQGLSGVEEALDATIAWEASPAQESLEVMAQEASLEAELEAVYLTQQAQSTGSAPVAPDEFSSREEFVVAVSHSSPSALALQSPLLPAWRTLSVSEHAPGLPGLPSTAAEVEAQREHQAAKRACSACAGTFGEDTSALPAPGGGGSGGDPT
Protocol: Inhibition of recombinant human PDE4A assessed as reduction of [3H]-cAMP hydrolysis preincubated for 5 mins followed by [3H]-cAMP addition measured after 20 mins by scintillation proximity assay
Please use yes (1) for IC50 under 4 µM and no (0) for everything else, ties included.

> print(dat)
                                smiles.code  category
1  Cn1cc(-c2ccncc2)c(-c2ccc(OCc3cc(OCCOCCOCCOCCF)c4ccccc4n3)cc2)n1    no (0)
2  Cn1ncc(-c2ccncc2)c1-c1ccc(OCc2cc(-n3cc(CCF)nn3)c3ccccc3n2)cc1   yes (1)
3  Cn1ncc(-c2ccncc2)c1-c1ccc(OCc2cc(OCCOCCOCCOCCF)c3ccccc3n2)cc1    no (0)
4  Cn1ncc(-c2ccncc2)c1-c1ccc(OCc2cc(OCCF)c3ccccc3n2)cc1   yes (1)
5  Cn1cc(-c2ccncc2)c(-c2ccc(OCc3cc(F)c4ccccc4n3)cc2)n1    no (0)
6  Cn1cc(-c2ccncc2)c(-c2ccc(OCc3cc(-n4cc(CCF)nn4)c4ccccc4n3)cc2)n1   yes (1)
7  Cn1cc(-c2ccncc2)c(-c2ccc(OCc3cc(OCCOCCF)c4ccccc4n3)cc2)n1   yes (1)
8  Cn1ncc(-c2ccncc2)c1-c1ccc(OCc2cc(COCCF)c3ccccc3n2)cc1    no (0)

* * *

The entries below are paired with their reported Drug uptake.
Tested on: Kidney
Protocol: Biodistribution in Sprague-Dawley rat kidney at 1.48 to 2.22 MBq, iv measured at 30 mins by gamma counting analysis
Format: ADME, organism-based
Condition Set: in vivo, 0.5 h
Reported Metric: Drug uptake (% ID/g)

> print(dat)
                                smiles.code  assay.value
1  Cn1cc(-c2ccncc2)c(-c2ccc(OCc3cc(OCCOCCOCC[18F])c4ccccc4n3)cc2)n1        1.793
2  Cn1cc(-c2ccncc2)c(-c2ccc(OCc3nc4ccccc4cc3OCC[18F])cc2)n1        1.022
3  Cn1cc(-c2ccncc2)c(-c2ccc(OCc3cc(CCC[18F])c4ccccc4n3)cc2)n1        1.364
4  Cn1cc(-c2ccncc2)c(-c2ccc(OCc3cc([18F])c4ccccc4n3)cc2)n1        1.034
5  Cn1cc(-c2ccncc2)c(-c2ccc(OCc3cc(COCC[18F])c4ccccc4n3)cc2)n1        0.632
6  Cn1cc(-c2ccncc2)c(-c2ccc(OCc3cc(OCC[18F])c4ccccc4n3)cc2)n1        1.055
7  Cn1cc(-c2ccncc2)c(-c2ccc(OCc3cc(C[18F])c4ccccc4n3)cc2)n1        1.351

* * *

Test System: UniProt:Q14432
Sequence (Q14432 whole entry): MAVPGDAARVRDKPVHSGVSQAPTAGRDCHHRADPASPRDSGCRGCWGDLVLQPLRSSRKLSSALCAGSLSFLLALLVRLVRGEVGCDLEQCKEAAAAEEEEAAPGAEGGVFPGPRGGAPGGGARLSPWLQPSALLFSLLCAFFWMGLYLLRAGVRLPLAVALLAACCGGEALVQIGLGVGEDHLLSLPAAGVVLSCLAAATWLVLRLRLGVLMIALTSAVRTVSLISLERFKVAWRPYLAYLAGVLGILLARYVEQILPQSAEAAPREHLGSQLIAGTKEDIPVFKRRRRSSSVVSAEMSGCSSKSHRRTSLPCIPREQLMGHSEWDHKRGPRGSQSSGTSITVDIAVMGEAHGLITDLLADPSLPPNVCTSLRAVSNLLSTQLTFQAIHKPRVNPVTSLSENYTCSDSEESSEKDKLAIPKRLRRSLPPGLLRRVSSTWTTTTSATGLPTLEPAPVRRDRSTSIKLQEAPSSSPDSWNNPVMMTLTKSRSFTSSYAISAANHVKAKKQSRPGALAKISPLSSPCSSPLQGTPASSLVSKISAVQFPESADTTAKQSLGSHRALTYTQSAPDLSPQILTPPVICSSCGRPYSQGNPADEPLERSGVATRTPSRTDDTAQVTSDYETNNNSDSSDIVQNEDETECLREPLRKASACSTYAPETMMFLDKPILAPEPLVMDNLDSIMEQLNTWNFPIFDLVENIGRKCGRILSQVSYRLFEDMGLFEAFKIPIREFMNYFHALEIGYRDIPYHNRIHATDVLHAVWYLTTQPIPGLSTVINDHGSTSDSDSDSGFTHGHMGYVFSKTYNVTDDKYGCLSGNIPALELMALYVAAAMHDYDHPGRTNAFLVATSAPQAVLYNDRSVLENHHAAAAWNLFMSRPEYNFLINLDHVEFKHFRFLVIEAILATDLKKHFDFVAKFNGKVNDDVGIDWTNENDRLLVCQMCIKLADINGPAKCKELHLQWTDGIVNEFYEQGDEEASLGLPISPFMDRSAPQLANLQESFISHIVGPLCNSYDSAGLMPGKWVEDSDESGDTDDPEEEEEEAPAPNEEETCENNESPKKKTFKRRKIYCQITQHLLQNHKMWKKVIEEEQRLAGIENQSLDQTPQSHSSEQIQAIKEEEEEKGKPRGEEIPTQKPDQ
Protocol: Inhibition of recombinant human PDE3A assessed as reduction of [3H]-cAMP hydrolysis preincubated for 5 mins followed by [3H]-cAMP addition measured after 20 mins by scintillation proximity assay
Reported Metric: log10(IC50) (log10 of the value in µM)

> print(dat)
                                 smiles.code  assay.value
 1  Cn1cc(-c2ccncc2)c(-c2ccc(OCc3nc4ccccc4cc3OCCF)cc2)n1         1.41
 2  Cn1ncc(-c2ccncc2)c1-c1ccc(OCc2cc(NCCF)c3ccccc3n2)cc1         1.90
 3  Cn1ncc(-c2ccncc2)c1-c1ccc(OCc2cc(-n3cc(CCF)nn3)c3ccccc3n2)cc1        -0.09
 4  Cn1cc(-c2ccncc2)c(-c2ccc(OCc3cc(NCCF)c4ccccc4n3)cc2)n1         0.57
 5  Cn1cc(-c2ccncc2)c(-c2ccc(OCc3ccc4cc(F)ccc4n3)cc2)n1         1.59
 6  Cn1cc(-c2ccncc2)c(-c2ccc(OCc3cc(COCCF)c4ccccc4n3)cc2)n1         0.61
 7  Cn1cc(-c2ccncc2)c(-c2ccc(OCc3cc(OCCOCCOCCF)c4ccccc4n3)cc2)n1         2.06
 8  Cn1ncc(-c2ccncc2)c1-c1ccc(OCc2cc(COCCF)c3ccccc3n2)cc1         2.49
 9  Cn1ncc(-c2ccncc2)c1-c1ccc(OCc2cc(OCCOCCOCCF)c3ccccc3n2)cc1         1.79
10  Cn1cc(-c2ccncc2)c(-c2ccc(OCc3cc(OCCF)c4ccccc4n3)cc2)n1         1.47
11  Cn1ncc(-c2ccncc2)c1-c1ccc(OCc2cc(OCCOCCF)c3ccccc3n2)cc1         1.82
12  Cn1cc(-c2ccncc2)c(-c2ccc(OCc3cc(F)c4ccccc4n3)cc2)n1         2.30
13  Cn1cc(-c2ccncc2)c(-c2ccc(OCc3cc(CF)c4ccccc4n3)cc2)n1         0.89
14  Cn1ncc(-c2ccncc2)c1-c1ccc(OCc2cc(OCCOCCOCCOCCF)c3ccccc3n2)cc1         1.77
15  Cn1cc(-c2ccncc2)c(-c2ccc(OCc3cc(-n4cc(CCF)nn4)c4ccccc4n3)cc2)n1         0.65
16  Cn1ncc(-c2ccncc2)c1-c1ccc(OCc2ccc3cc(F)ccc3n2)cc1         2.05
17  Cn1cc(-c2ccncc2)c(-c2ccc(OCc3cc(CCCF)c4ccccc4n3)cc2)n1         1.34
18  Cn1ncc(-c2ccncc2)c1-c1ccc(OCc2cc(OCCF)c3ccccc3n2)cc1         0.58
19  Cn1cc(-c2ccncc2)c(-c2ccc(OCc3cc(OCCOCCF)c4ccccc4n3)cc2)n1         1.36
20  Cn1cc(-c2ccncc2)c(-c2ccc(OCc3cc(OCCOCCOCCOCCF)c4ccccc4n3)cc2)n1         2.16

* * *

Test system: Liver
Protocol: Biodistribution in Sprague-Dawley rat liver at 1.48 to 2.22 MBq, iv measured at 60 mins by gamma counting analysis
Format: ADME, organism-based
Condition Set: in vivo, 1 h
Reported Metric: Drug uptake (% ID/g)

> print(dat)
                                smiles.code  test.system  unit.of.measurement  assay.value
1  Cn1cc(-c2ccncc2)c(-c2ccc(OCc3cc(OCCOCCOCC[18F])c4ccccc4n3)cc2)n1        Liver               % ID/g        0.527
2  Cn1cc(-c2ccncc2)c(-c2ccc(OCc3nc4ccccc4cc3OCC[18F])cc2)n1        Liver               % ID/g          1.8
3  Cn1cc(-c2ccncc2)c(-c2ccc(OCc3cc(COCC[18F])c4ccccc4n3)cc2)n1        Liver               % ID/g        0.554
4  Cn1cc(-c2ccncc2)c(-c2ccc(OCc3cc([18F])c4ccccc4n3)cc2)n1        Liver               % ID/g          1.6
5  Cn1cc(-c2ccncc2)c(-c2ccc(OCc3cc(CCC[18F])c4ccccc4n3)cc2)n1        Liver               % ID/g         6.79
6  Cn1cc(-c2ccncc2)c(-c2ccc(OCc3cc(OCC[18F])c4ccccc4n3)cc2)n1        Liver               % ID/g         3.29
7  Cn1cc(-c2ccncc2)c(-c2ccc(OCc3cc(C[18F])c4ccccc4n3)cc2)n1        Liver               % ID/g          3.1
